SYSTEM_NAME: human MC4R receptor (human, UniProt P32245 1-332)
Sequence (P32245 whole entry): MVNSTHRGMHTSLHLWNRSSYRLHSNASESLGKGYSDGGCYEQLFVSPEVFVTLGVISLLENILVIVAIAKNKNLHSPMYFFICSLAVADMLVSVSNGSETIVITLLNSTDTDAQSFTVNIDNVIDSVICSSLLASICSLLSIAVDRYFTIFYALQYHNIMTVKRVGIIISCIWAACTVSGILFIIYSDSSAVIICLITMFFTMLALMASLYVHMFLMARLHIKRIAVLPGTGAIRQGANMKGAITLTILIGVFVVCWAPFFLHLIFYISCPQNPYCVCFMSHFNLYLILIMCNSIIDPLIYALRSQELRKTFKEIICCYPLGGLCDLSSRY
METHOD_DESCRIPTION: cell-based or functional assay
Positions of bridges follow the written chain, without caps; N, C: chain ends. Non-standard residues stand in square brackets, D forms with d. 1Nal = N[C@@H](Cc1cccc2ccccc12)C(=O)O; Nle = CCCC[C@H](N)C(=O)O; Aib = CC(C)(N)C(=O)O
QUANTITY_KIND: MC4R selectivity vs MC1R
Numbers only.

Here's what some known entries look like.
# input Dear colleague, I am looking for the recorded MC4R selectivity vs MC1R of the following binder: Ac-R[Nle]CH[1Nal]RWC-NH2 (disulfide 3-8; SMILES CCCC[C@H](NC(=O)[C@H](CCCNC(=N)N)NC(C)=O)C(=O)N[C@H]1CSSC[C@@H](C(N)=O)NC(=O)[C@H](Cc2c[nH]c3ccccc23)NC(=O)[C@H](CCCNC(=N)N)NC(=O)[C@H](Cc2cccc3ccccc23)NC(=O)[C@H](Cc2c[nH]cn2)NC1=O) [CTX-1610]
# output 0.03

# input Same for {CH2CO}-GR[dF]RFC-NH2 (thioether N-6; SMILES N=C(N)NCCC[C@@H]1NC(=O)CNC(=O)CSC[C@@H](C(N)=O)NC(=O)[C@H](Cc2ccccc2)NC(=O)[C@H](CCCNC(=N)N)NC(=O)[C@@H](Cc2ccccc2)NC1=O) [CTX-1654]
# output 0.62

Kindly consider the entry below.
# input Form field: reported MC4R selectivity vs MC1R of {CH2CO}-[Aib]R[dF]RWC-NH2 (thioether N-6; SMILES CC1(C)NC(=O)CSC[C@@H](C(N)=O)NC(=O)[C@H](Cc2c[nH]c3ccccc23)NC(=O)[C@H](CCCNC(=N)N)NC(=O)[C@@H](Cc2ccccc2)NC(=O)[C@H](CCCNC(=N)N)NC1=O) [CTX-1648]
# output 13

Data provenance: patent US20240391954A1
